- Target System: T1, hMPV PostF trimer (human metapneumovirus, strain B2)
- T1 construct: also called MPV PostF (dPFv1)
- Assay Remarks: BLI, mAb on anti-human Fc sensor

Binder	Octet binding response (nm)
M2C06 (antibody, V domains shown, IgG) VH: QVQLVQSGAEVKKPGSSVKVSCRPSGGTFSNDILSWVRQAPGQRLEWMGRIIPLVNMTNIAQKFQGRLTLVADKSTAIVHLELGSLRAEDTAIYYCVRDLPSAGFPAPFDIWGQGTRVTVSA VL: EIVLTQSPGSLSLSPGARATVSCRASQSLNSASLVWYQQRVGQAPRLLMFGASNRATGIPDRFSGSGSGTDFTLTISRLEPEDFAVYYCQQYAFSPPTFGQGTKVEIK	0.436
